Cited source: patent US4769386A

# tested-on: leukotriene induced contraction of guinea pig tracheal tissues (LTD4) (Cavia porcellus, UniProt Q2NNR5)
# Construct: from tissue; host or cells: guinea pig (adult male albino Hartley strain) tracheal spiral strips
# experiment-description: leukotriene (LTD4) induced contraction of guinea pig tracheal spiral strips in vitro, leukotriene antagonist activity
# Type: cell-based, guinea pig (adult male albino Hartley strain)
# measurement-parameters: antagonism of LTD4 contraction, guinea pig trachea; EC30 based (30% of carbachol contraction); meclofenamic acid 1 μM; test compound 30 min pretreatment; KB = concentration of test compound/(X-1); read-out: In Vitro -Log KB (converted)
Listed here: items and their measured Kb.
value-kind: Kb (nM)

                                   compound  result_unit  value_measured
0  C=CCn1ccnc1S[C@@H](/C=C\CCCCCCCCCCCC)[C@H](O)CCC(=O)O (relative stereo)           nM            5010
1  CCCCCCCCCCCC/C=C\[C@H](Sc1nc(C)c(C)n1C)[C@H](O)CCC(=O)O (relative stereo)           nM            2510
2  CCCCCCCCCCCC/C=C\[C@H](Sc1nc(C(=O)O)c[nH]1)[C@H](O)CCC(=O)O (relative stereo)           nM            2000

----------
# tested-on: leukotriene induced contraction of guinea pig tracheal tissues (LTD4) (Cavia porcellus)
# Construct: from tissue; host or cells: guinea pig (adult male albino Hartley strain) tracheal spiral strips
# Sequence (Q2NNR5 1-340): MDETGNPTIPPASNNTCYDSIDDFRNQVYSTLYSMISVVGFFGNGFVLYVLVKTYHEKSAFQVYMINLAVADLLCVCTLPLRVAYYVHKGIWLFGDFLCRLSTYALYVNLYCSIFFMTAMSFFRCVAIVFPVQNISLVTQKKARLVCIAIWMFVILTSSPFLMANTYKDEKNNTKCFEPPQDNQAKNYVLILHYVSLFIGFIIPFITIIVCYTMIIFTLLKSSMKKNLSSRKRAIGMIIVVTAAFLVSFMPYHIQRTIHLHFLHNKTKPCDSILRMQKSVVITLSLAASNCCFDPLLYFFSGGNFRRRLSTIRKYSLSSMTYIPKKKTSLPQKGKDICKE
# experiment-description: leukotriene (LTD4) induced contraction of guinea pig tracheal spiral strips in vitro, leukotriene antagonist activity
# Type: cell-based, guinea pig (adult male albino Hartley strain)
# measurement-parameters: antagonism of LTD4 contraction, guinea pig trachea; EC30 based (30% of carbachol contraction); meclofenamic acid 1 μM; test compound 30 min pretreatment; KB = concentration of test compound/(X-1); read-out: In Vitro -Log KB (converted)
Where a name gives a salt, the structure may show the parent alone.
value-kind: log10 of Kb (log10 of the value in nM)

>>> print(df.to_string())
                                   molecule  value_measured
0  CCCCCCCCCCCC/C=C\[C@H](Sc1nc(C)c(CCC(=O)O)n1C)[C@H](O)CCC(=O)O (relative stereo)            3.10
1  CCCCCCCCCCCC/C=C\[C@H](Sc1nc(C)c(CC(=O)O)n1C)[C@H](O)CCC(=O)O (relative stereo)            2.60
2  CCCCCCCCCCCC/C=C\[C@H](Sc1ncc(C(=O)O)n1C)[C@H](O)CCC(=O)O (relative stereo)            2.20
3  CCCCCCCCCCCC/C=C\[C@H](Sc1nccn1C)[C@H](O)CCCC(=O)O (relative stereo)            3.00
4  CCCCCCCCCCCC/C=C\[C@H](Sc1nc(CCC)c(C(=O)O)n1C)[C@H](O)CCC(=O)O (relative stereo)            2.50
5  CCCCCCCCCCCC/C=C\C(Sc1cn(C)cn1)C(O)CCC(=O)O (stereo not drawn) [Formula (V), R4 ^(b) CH3, R5 H, R6 H, sodium salt]            3.30

----------
# tested-on: leukotriene induced contraction of guinea pig tracheal tissues (LTD4) (Cavia porcellus)
# Construct: from tissue; host or cells: guinea pig (adult male albino Hartley strain) tracheal spiral strips
# Sequence (Q2NNR5 1-340): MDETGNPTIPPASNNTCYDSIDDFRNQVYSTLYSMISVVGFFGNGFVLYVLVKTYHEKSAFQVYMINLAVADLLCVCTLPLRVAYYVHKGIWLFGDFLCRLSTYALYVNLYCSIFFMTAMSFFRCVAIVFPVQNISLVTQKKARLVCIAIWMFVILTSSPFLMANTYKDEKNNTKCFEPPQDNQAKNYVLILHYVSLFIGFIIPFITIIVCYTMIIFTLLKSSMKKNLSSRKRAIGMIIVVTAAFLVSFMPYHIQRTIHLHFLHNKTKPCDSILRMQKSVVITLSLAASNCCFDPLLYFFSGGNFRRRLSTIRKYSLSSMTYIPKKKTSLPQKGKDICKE
# experiment-description: leukotriene (LTD4) induced contraction of guinea pig tracheal spiral strips in vitro, leukotriene antagonist activity
# Format: cell-based, guinea pig (adult male albino Hartley strain)
# measurement-parameters: antagonism of LTD4 contraction, guinea pig trachea; EC30 based (30% of carbachol contraction); meclofenamic acid 1 μM; test compound 30 min pretreatment; KB = concentration of test compound/(X-1); read-out: In Vitro -Log KB (converted)
value-kind: log10 of Kb (log10 of the value in nM)

>>> print(df.to_string())
                                   molecule   value_kind  value_measured
0  CCCCCCCCCCCC/C=C\[C@H](Sc1nccn1C)[C@H](O)CCC(=O)O (relative stereo)  log10 of Kb            3.10
1  CCCCCCCCCCCC/C=C\C(Sc1ncn(C)c1C(=O)O)C(O)CCC(=O)O (stereo not shown)  log10 of Kb            2.30
2  CCCCCCCCCCCC/C=C\[C@H](Sc1nc(CC)c(C(=O)O)n1C)[C@H](O)CCC(=O)O (relative stereo)  log10 of Kb            2.30
3  CCCCCCCCCCCC/C=C\[C@H](Sc1nc(CC(=O)O)cn1C)[C@H](O)CCC(=O)O (relative stereo)  log10 of Kb            2.90
4  CCCCCCCCCCCC/C=C\[C@H](Sc1nc(C)c(CC(N)=O)n1C)[C@H](O)CCC(=O)O (relative stereo)  log10 of Kb            2.80
5  CCCCCCCCCCCC/C=C\[C@H](Sc1ncc(C(N)=O)n1C)[C@H](O)CCC(=O)O (relative stereo)  log10 of Kb            3.60
6  CCCCCCCCCCCCC#CC(Sc1nc(C)c(C(=O)O)n1C)C(O)CCC(=O)O (stereo not shown)  log10 of Kb            3.20

----------
# tested-on: leukotriene induced contraction of guinea pig tracheal tissues (LTD4) (Cavia porcellus)
# Construct: from tissue; host or cells: guinea pig (adult male albino Hartley strain) tracheal spiral strips
# Sequence (Q2NNR5 1-340): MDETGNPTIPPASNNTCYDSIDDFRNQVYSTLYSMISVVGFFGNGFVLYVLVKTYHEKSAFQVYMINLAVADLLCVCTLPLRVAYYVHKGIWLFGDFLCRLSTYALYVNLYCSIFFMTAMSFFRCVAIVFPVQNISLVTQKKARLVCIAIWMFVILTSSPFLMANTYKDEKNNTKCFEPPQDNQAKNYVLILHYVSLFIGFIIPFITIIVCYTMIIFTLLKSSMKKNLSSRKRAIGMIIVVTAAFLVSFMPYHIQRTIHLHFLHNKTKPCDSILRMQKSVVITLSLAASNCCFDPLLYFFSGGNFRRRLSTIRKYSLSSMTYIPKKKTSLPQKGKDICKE
# experiment-description: leukotriene (LTD4) induced contraction of guinea pig tracheal spiral strips in vitro, leukotriene antagonist activity
# Assay type: cell-based, guinea pig (adult male albino Hartley strain)
# measurement-parameters: antagonism of LTD4 contraction, guinea pig trachea; EC30 based (30% of carbachol contraction); meclofenamic acid 1 μM; test compound 30 min pretreatment; KB = concentration of test compound/(X-1); read-out: In Vitro -Log KB (converted)
Structures can show the parent of a compound that is named as a salt.
Listed here: items and their measured Kb.
value-kind: Kb (nM)

compound	value-measured
CCCCCCCCCCCC/C=C\[C@H](Sc1nc(C)c(C(=O)O)n1C)[C@H](O)CCC(=O)O (relative stereo)	126
CCCCCCCCCCCC/C=C\[C@H](Sc1nc(C(C)C)c(C(=O)O)n1C)[C@H](O)CCC(=O)O (relative stereo)	1260
CCCCCCCCCCCC/C=C\[C@H](Sc1nccn1CC)[C@H](O)CCC(=O)O (relative stereo) [Formula (III), R1 CH3 CH2, R2 H, R3 H, sodium salt]	5010
CCCCCCCCCCCC/C=C\C(CCCC(=O)O)Sc1ncc(C(=O)O)n1C (stereo not shown)	316
